- target.or.system: T1, monomeric human PRLR (hPRLR.mmh; SEQ ID NO:401) (Homo sapiens, UniProt P16471)
- T1 construct: soluble monomeric (hPRLR.mmh); mmh (myc-myc-hexahistidine) (C)
- T1 sequence (P16471 with tags, fused parts or gaps): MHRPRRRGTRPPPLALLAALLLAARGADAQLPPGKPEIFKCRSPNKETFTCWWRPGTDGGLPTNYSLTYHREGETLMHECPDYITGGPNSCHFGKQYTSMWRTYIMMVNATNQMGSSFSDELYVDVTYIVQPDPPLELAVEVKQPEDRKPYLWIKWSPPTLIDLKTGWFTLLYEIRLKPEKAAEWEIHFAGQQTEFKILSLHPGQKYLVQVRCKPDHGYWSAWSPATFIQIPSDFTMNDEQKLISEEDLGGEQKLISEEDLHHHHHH
- measurement.description: Surface plasmon resonance (Biacore T200), antibody-capture format
- Type: binding
- measurement.setup: 25° C., analyte hPRLR.mmh
- Experimental: Antibodies, expressed as human IgG1 Fc (i.e., “H1H” designations), were captured onto an anti-human Fc sensor surface (mAb-capture format), and soluble monomeric (hPRLR.mmh; SEQ ID NO:401, or Macaca fascicularis (mf) PRLR.mmh; SEQ ID NO:403) or dimeric (hPRLR.mFc; SEQ ID NO:402) PRLR protein was injected over the sensor surface. Measurements were conducted on a T200 Biacore instrument. […]
assay.metric: ka (M/s)
Value expressed in M/s; do not type the unit.

Exam item: Recorded ka for H1H6804P: fully human anti-PRLR antibody, human IgG1 Fc; HCVR/LCVR SEQ ID NOs 242/250 (antibody, V domains shown) VH: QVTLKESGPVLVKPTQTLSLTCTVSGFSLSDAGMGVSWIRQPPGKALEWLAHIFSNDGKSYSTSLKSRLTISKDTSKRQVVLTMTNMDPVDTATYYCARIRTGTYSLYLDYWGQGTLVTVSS VL: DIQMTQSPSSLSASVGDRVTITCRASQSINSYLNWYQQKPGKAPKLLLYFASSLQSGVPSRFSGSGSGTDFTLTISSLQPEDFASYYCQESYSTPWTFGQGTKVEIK , please?
Marked response: 453000
